molecular target: human cannabinoid type 1 receptor (Homo sapiens); construct: transiently transfected with full-length human recombinant cDNA (OriGene, Rockville, MD, USA); host or cells: HEK293; assay: CB1 GTPγS functional assay; format: biochemical; settings: read-out: EC50 CB1 GTPγS
pEC50: −log10 of the molar value.
MEASUREMENT TYPE: pEC50

Cc1noc(-c2ccc(O)cc2O)c1-c1ccc(Br)cc1 = 6.89

* * *

Reported pIC50 values are given for each entry in this list.
Biological target: CB1 receptor (Homo sapiens)
Construct: transiently transfected with full-length human recombinant cDNA (OriGene, Rockville, MD, USA); host or cells: HEK293
Sequence (P21554 whole entry): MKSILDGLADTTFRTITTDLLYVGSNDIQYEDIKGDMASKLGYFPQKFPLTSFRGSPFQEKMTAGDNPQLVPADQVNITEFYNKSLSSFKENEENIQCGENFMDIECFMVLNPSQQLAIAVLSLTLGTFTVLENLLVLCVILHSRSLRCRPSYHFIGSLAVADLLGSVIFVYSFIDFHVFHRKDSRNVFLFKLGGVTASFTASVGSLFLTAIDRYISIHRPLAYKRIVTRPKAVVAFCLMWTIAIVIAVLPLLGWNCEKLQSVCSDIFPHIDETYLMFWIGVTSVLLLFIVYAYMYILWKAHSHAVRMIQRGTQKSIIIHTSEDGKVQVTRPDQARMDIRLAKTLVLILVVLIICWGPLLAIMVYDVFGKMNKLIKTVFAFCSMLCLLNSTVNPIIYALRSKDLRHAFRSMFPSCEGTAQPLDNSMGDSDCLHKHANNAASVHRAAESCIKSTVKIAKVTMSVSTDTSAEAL
Experiment: Competitive [3H]-CP55,940 radioligand binding assay, CB1
Details: Table 1; initial full-curve binding; superscript a = up to solubility limit; read-out: IC50 ± SEM CB1
Experimental: HEK293 cells were collected and transiently transfected with full-length human recombinant cDNA (OriGene, Rockville, MD, USA) containing expression clones to generate separate cell lines expressing either the CB1 or CB2 receptors (50 µg/mL) using electroporation (70 ms, single pulse, 150 volts). […] Competitive binding assays were performed with a modified rapid filtration assay described by Ma et al. (2007) and Felder et al. (1992). […] Filter bound radioactivity was recorded in counts per minute (CPM). […]
pIC50: −log10 of the molar value.
MEASUREMENT TYPE: pIC50

CN(Cc1ccccc1)Cc1c(O)ccc2c1OC(=Cc1cn(C)c3ccccc13)C2=O = 4.61
Cc1noc(-c2ccc(O)cc2O)c1-c1ccc(Br)cc1 = 4.68
COc1ccc2[nH]c3c(c2c1)CCN1C(=O)CN(CCc2c[nH]c4ccccc24)C(=O)[C@]31C = 5.49

Value source: paper PMC6222380
